target-entity: Nrf2-Keap1 complex (Homo sapiens, UniProt Q14145)
Sequence (Q14145 whole entry, one chain of several): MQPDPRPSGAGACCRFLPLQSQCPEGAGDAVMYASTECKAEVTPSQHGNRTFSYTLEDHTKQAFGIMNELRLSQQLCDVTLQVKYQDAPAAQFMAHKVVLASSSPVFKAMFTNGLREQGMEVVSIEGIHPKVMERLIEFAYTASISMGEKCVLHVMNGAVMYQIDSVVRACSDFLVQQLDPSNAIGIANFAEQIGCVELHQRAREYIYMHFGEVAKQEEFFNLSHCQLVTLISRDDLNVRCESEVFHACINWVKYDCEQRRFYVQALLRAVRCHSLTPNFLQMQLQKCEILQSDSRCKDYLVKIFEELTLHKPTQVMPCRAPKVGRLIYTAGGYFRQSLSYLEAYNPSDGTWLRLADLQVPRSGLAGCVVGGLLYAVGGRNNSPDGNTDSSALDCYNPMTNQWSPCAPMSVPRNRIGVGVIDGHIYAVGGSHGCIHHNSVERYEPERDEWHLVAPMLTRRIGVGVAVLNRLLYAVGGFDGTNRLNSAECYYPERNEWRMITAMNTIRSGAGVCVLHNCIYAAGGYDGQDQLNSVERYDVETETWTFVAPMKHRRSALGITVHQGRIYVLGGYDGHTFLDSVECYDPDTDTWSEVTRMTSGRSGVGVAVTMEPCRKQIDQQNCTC
method: cell-based
Type: cell-based
test-conditions: 3 h, read-out: Activation 100 nL
Decide by activation at 16 µM: equal to or exceeding 90% means fulfilled, less means not fulfilled.

Input line: Could you please find out whether CC1=CC(=O)[C@H]2C(C)(C)CCC[C@]2(C)[C@@]1(O)CCc1ccoc1 [SOLIDAGENONE] has activation at 16 µM that meets 90% or exceeds it?
Output line: fulfilled

Input line: Quick one: CC(C)=CCc1c2c(c(O)c3c(=O)c(O)c(-c4ccccc4)oc13)C=CC(C)(C)O2 [SERICETIN]
Output line: fulfilled

Input line: Quick one: CC(C)[C@@H](C)/C=C/[C@@H](C)[C@H]1CC[C@H]2C3=CC=C4C[C@@H](O)CC[C@]4(C)[C@H]3CC[C@]12C [ERGOSTEROL]
Output line: not fulfilled

Input line: Quick one: C[C@@H]1C[C@H]2[C@@H]3CCC4=CC(=O)C=C[C@]4(C)[C@@]3(Cl)[C@@H](O)C[C@]2(C)[C@@]1(OC(=O)c1ccco1)C(=O)CCl [MOMETASONEFUROATE, reference compound]
Output line: not fulfilled

Input line: Quick one: NC(=O)c1ccc(N)nc1 [6-AMINONICOTINAMIDE]
Output line: not fulfilled

Input line: Quick one: CNC(=O)CSP(=S)(OC)OC [DIMETHOATE]
Output line: not fulfilled

----------
target-entity: Nrf2-Keap1 complex (Homo sapiens, UniProt Q14145)
method: cell-based
Assay type: cell-based
test-conditions: 3 h, read-out: Activation 200 nL
Where a name gives a salt, the structure may show the parent alone.
endpoint-name: activation at 32 µM
Please answer using the number first and the unit second.

Input line: Given O=C1C=C(O)C(=O)c2ccccc21 [LAWSONE] , state its recorded activation at 32 µM.
Output line: 34%

Input line: Quick one: ClC1=C(Cl)C2(Cl)C3C(Cl)C(Cl)CC3C1(Cl)C2(Cl)Cl (centres unmarked) [CHLORDANE]
Output line: 135%

Input line: Quick one: COC(=O)Nc1nc2ccc(Sc3ccccc3)cc2[nH]1 [FENBENDAZOLE, reference compound]
Output line: -24%

Input line: Quick one: COc1ccc2c(c1)OC/C(=C/c1ccc(OC)c(OC)c1)C2=O [SAPPANONEATRIMETHYLETHER]
Output line: 93%

Input line: Quick one: COc1c(C)c2c(c(O)c1C/C=C(\C)CCC(=O)O)C(=O)OC2 [MYCOPHENOLICACID, reference compound]
Output line: 84%

Input line: Quick one: NCCCCNCCCN [SPERMIDINETRIHYDROCHLORIDE]
Output line: 22%

Input line: Quick one: COc1cc(O)c2c(=O)c(O)c(-c3ccc(O)c(O)c3)oc2c1 [RHAMNETIN]
Output line: 47%

Input line: Quick one: O=CC=Cc1ccc(O)cc1 [p-HYDROXYCINNAMALDEHYDE]
Output line: 122%

Input line: Quick one: Nc1ncnc2c1ncn2C1O[C@H](COP(=O)(O)O)[C@@H](O)[C@H]1O (some centres unmarked) [ADENOSINEPHOSPHATE, reference compound]
Output line: 14%

Input line: Quick one: CC1=C2C(=CO[C@H](C)[C@H]2C)C(O)=C(C(=O)O)C1=O [CITRININ]
Output line: 217%

Input line: Quick one: CC(C)=CCc1c2c(c(O)c3c(=O)c(O)c(-c4ccccc4)oc13)C=CC(C)(C)O2 [SERICETIN]
Output line: 20%

Input line: Quick one: O=C(NC(=O)c1c(F)cccc1F)Nc1cc(Cl)c(OC(F)(F)C(F)C(F)(F)F)cc1Cl (centres unmarked) [LUFENURON]
Output line: 29%

Input line: Quick one: CC1=CC(=O)[C@H]2C(C)(C)CCC[C@]2(C)[C@@]1(O)CCc1ccoc1 [SOLIDAGENONE]
Output line: 77%

Input line: Quick one: CC(C)c1cc2c(c(O)c1O)[C@@]1(C(=O)O)CCCC(C)(C)[C@@H]1CC2 [CARNOSICACID]
Output line: 182%

Input line: Quick one: C[C@@H]1C[C@H]2[C@@H]3CCC4=CC(=O)C=C[C@]4(C)[C@@]3(Cl)[C@@H](O)C[C@]2(C)[C@@]1(OC(=O)c1ccco1)C(=O)CCl [MOMETASONEFUROATE, reference compound]
Output line: 140%

Input line: Quick one: CC(=O)OC1CCC23CC1(C)CCC2C(C)(C)CC3OC(C)=O (centres unmarked) [CLOVANEDIOLDIACETATE]
Output line: 40%

Input line: Quick one: COc1cc(O)c(C(=O)/C=C/c2ccc(O)c(OC)c2)c(OC)c1
Output line: 305%

Input line: Quick one: COC(=O)c1c(C)cc(O)cc1O [METHYLORSELLINATE]
Output line: 1%

Input line: Quick one: O=C(/C=C/c1ccccc1)c1ccc(O)cc1 [4′-HYDROXYCHALCONE]
Output line: 76%

Input line: Quick one: CC(CCc1ccccc1)NC(C)C(O)c1ccc(O)cc1 (centres unmarked) [NYLIDRINHYDROCHLORIDE, reference compound]
Output line: 22%

Input line: Quick one: COC(=O)C1=C(C)NC(C)=C(C(=O)OC)C1c1ccccc1[N+](=O)[O-] [NIFEDIPINE, reference compound]
Output line: -10%

Input line: Quick one: O=c1oc2cc(O)ccc2s1 [TIOXOLONE, reference compound]
Output line: 31%

Input line: Quick one: C=C[C@@]1(C)CC(=O)[C@]2(O)[C@@]3(C)[C@@H](O)CCC(C)(C)[C@@H]3[C@H](O)[C@H](OC(C)=O)[C@@]2(C)O1 [COLFORSIN, reference compound]
Output line: 120%

Input line: Quick one: COc1ccc(/C=C/C(=O)c2ccc(O)cc2O)cc1 [2′,4′-DIHYDROXY-4-METHOXYCHALCONE]
Output line: 121%

Input line: Quick one: CCOc1ccc(C(=O)c2ccc(OC)c(O)c2O)cc1
Output line: 65%

Input line: Quick one: COC1=CC(=O)C[C@@H](C)[C@]12Oc1c(Cl)c(OC)cc(OC)c1C2=O [GRISEOFULVIN, reference compound]
Output line: 182%

Input line: Quick one: C[C@@](Cc1ccc(O)c(O)c1)(NN)C(=O)O [CARBIDOPA, reference compound]
Output line: 67%

Input line: Quick one: CC1(C)C(=O)C=C[C@]2(C)[C@H]3CC[C@@]4(C)[C@H](c5ccoc5)OC(=O)[C@H]5O[C@]54[C@]3(C)[C@H](O)C[C@@H]12 [DEACETYLGEDUNIN]
Output line: -7%

Input line: Quick one: COc1cc([C@@H]2c3cc4c(cc3[C@@H](O[C@@H]3O[C@@H]5CO[C@@H](C)O[C@H]5[C@H](O)[C@H]3O)[C@H]3COC(=O)[C@H]23)OCO4)cc(OC)c1O [ETOPOSIDE, reference compound]
Output line: 89%

Input line: Quick one: CC(=O)O[C@@H]1C[C@H]2C(C)(C)C(=O)C=C[C@]2(C)[C@H]2CC[C@@]3(C)[C@H](c4ccoc4)OC(=O)[C@H]4O[C@]43[C@@]21C [GEDUNIN]
Output line: 184%

Input line: Quick one: O=C(/C=C/c1ccccc1)c1ccc(O)cc1O [2′,4′-DIHYDROXYCHALCONE]
Output line: 45%

Input line: Quick one: COc1cc(O)c(C(=O)c2ccccc2)cc1O [CEAROIN]
Output line: 111%
